Hello, the source for this data is ChEMBL document CHEMBL2311431, in case you need it.

System: Listeria monocytogenes
Test: Antibacterial activity against Listeria monocytogenes NCTC 7973 after 24 hr by microdilution test
Format: functional
Conditions: NCTC 7973, 24 h
Reported MIC by item:
value kind: MIC (µM)

[[record]]
structure_smiles = "O=C1N/C(=N\\c2nccs2)S/C1=C\\c1cccc(Cl)c1Cl"
value_kind = "MIC"
endpoint_value = 70.2

[[record]]
structure_smiles = "CN(C)c1ccc(/C=C2\\S/C(=N/c3nccs3)NC2=O)cc1"
value_kind = "MIC"
endpoint_value = 30.3

[[record]]
structure_smiles = "Cc1csc(/N=C2\\NC(=O)/C(=C/c3ccc(Cl)cc3)S2)n1"
value_kind = "MIC"
endpoint_value = 30

[[record]]
structure_smiles = "O=C1N/C(=N\\c2nccs2)S/C1=C\\c1ccc(Cl)cc1Cl"
value_kind = "MIC"
endpoint_value = 70.2

